So I've got a bunch of molecules here, and I need their inhibition of growth at 50 µM values.
- System: THP-1
- Measurement notes: Cytotoxicity against human THP1 cells assessed as growth inhibition at 50 uM after 48 hrs by SRB assay relative to control
- Assay type: functional
- Experimental setup: THP-1, 48 h, read-out: GI

Some molecules with known inhibition of growth at 50 µM results, for comparison:
Request: Which inhibition of growth at 50 µM is reported with THP-1 for this entry: `O=C1C(=O)N(CCCCCn2cc(COc3cc(=O)oc4ccccc34)nn2)c2ccccc21` ?
Response: 69%

Request: Which inhibition of growth at 50 µM is reported with THP-1 for this entry: `O=C1C(=O)N(CCCCn2cc(COc3cc(=O)oc4ccccc34)nn2)c2ccc(I)cc21` ?
Response: 59%

Request: Which inhibition of growth at 50 µM is reported with THP-1 for this entry: `O=C1C(=O)N(CCn2cc(COc3cc(=O)oc4ccccc34)nn2)c2ccc(Cl)cc21` ?
Response: 87%

Request: Which inhibition of growth at 50 µM is reported with THP-1 for this entry: `COc1ccc2c(c1)C(=O)C(=O)N2CCCCn1cc(COc2cc(=O)oc3ccccc23)nn1` ?
Response: 52%

Request: Which inhibition of growth at 50 µM is reported with THP-1 for this entry: `O=C1C(=O)N(CCn2cc(COc3cc(=O)oc4ccccc34)nn2)c2ccc(Br)cc21` ?
Response: 80%

Request: Which inhibition of growth at 50 µM is reported with THP-1 for this entry: `O=C1C(=O)N(CCCCCn2cc(COc3cc(=O)oc4ccccc34)nn2)c2ccc(I)cc21` ?
Response: 45%

Request: Which inhibition of growth at 50 µM is reported with THP-1 for this entry: `O=C1C(=O)N(CCCn2cc(COc3cc(=O)oc4ccccc34)nn2)c2ccc(Cl)cc21` ?
Response: 78%

Request: Which inhibition of growth at 50 µM is reported with THP-1 for this entry: `O=C1C(=O)N(CCCCn2cc(COc3cc(=O)oc4ccccc34)nn2)c2ccc(Cl)cc21` ?
Response: 71%

Request: Which inhibition of growth at 50 µM is reported with THP-1 for this entry: `COc1ccc2c(c1)C(=O)C(=O)N2CCn1cc(COc2cc(=O)oc3ccccc23)nn1` ?
Response: 68%

Request: Which inhibition of growth at 50 µM is reported with THP-1 for this entry: `O=C1C(=O)N(CCn2cc(COc3cc(=O)oc4ccccc34)nn2)c2ccc(F)cc21` ?
Response: 92%

Look up inhibition of growth at 50 µM for the entries below, preserving their order.
1. COc1ccc2c(c1)C(=O)C(=O)N2CCCCCn1cc(COc2cc(=O)oc3ccccc23)nn1
2. O=C1C(=O)N(CCCn2cc(COc3cc(=O)oc4ccccc34)nn2)c2ccc([N+](=O)[O-])cc21
3. O=C1C(=O)N(CCCCCn2cc(COc3cc(=O)oc4ccccc34)nn2)c2ccc(Cl)cc21
4. O=C1C(=O)N(CCCn2cc(COc3cc(=O)oc4ccccc34)nn2)c2ccc(Br)cc21
5. COc1ccc2c(c1)C(=O)C(=O)N2CCCn1cc(COc2cc(=O)oc3ccccc23)nn1

Response:
30%
60%
59%
72%
56%

Look up inhibition of growth at 50 µM for the entries below, preserving their order.
1. O=C1C(=O)N(CCCCCn2cc(COc3cc(=O)oc4ccccc34)nn2)c2ccc(F)cc21
2. O=C1C(=O)N(CCn2cc(COc3cc(=O)oc4ccccc34)nn2)c2ccc([N+](=O)[O-])cc21
3. O=C1C(=O)N(CCn2cc(COc3cc(=O)oc4ccccc34)nn2)c2ccc(I)cc21

Response:
63%
71%
74%

Data provenance is ChEMBL document CHEMBL4043166.
